system: A549; experiment: Cytotoxicity against human A549 cells after 72 hrs; assay type: functional, cell-based; settings: A549, 72 h
pEC50: −log10 of the molar value.
Lab note: compare pEC50 against 5. Equal or greater, write satisfied. Smaller, write not satisfied.

### Prompt State whether the measured pEC50 reaches 5, counting equality as reaching it, for "NC(=O)c1sc2nc3c(c(/C=C/c4ccco4)c2c1N)CCCCCC3"
### Response not satisfied

### Prompt Also need "NC(=O)c1sc2nc3c(cc2c1N)CCCCCC3" , thanks.
### Response not satisfied

### Prompt Also need "Nc1ncnc2c1sc1nc3c(c(-c4ccco4)c12)CCCCC3" , thanks.
### Response not satisfied

### Prompt Also need "NC(=O)c1sc2nc3c(c(-c4ccc(Cl)o4)c2c1N)CCCCCC3" , thanks.
### Response not satisfied

### Prompt Also need "Nc1ncnc2c1sc1nc(N3CCOCC3)c3c(c12)CCCC3" , thanks.
### Response satisfied

* * *

We begin with a simple list: items and their reported log10 of IC50.
molecular target: Eukaryotic elongation factor 2 kinase (Homo sapiens); assay: Inhibition of GST tagged eEf2K expressed in Escherichia coli by fluorometric method
Sequence (O00418 whole entry): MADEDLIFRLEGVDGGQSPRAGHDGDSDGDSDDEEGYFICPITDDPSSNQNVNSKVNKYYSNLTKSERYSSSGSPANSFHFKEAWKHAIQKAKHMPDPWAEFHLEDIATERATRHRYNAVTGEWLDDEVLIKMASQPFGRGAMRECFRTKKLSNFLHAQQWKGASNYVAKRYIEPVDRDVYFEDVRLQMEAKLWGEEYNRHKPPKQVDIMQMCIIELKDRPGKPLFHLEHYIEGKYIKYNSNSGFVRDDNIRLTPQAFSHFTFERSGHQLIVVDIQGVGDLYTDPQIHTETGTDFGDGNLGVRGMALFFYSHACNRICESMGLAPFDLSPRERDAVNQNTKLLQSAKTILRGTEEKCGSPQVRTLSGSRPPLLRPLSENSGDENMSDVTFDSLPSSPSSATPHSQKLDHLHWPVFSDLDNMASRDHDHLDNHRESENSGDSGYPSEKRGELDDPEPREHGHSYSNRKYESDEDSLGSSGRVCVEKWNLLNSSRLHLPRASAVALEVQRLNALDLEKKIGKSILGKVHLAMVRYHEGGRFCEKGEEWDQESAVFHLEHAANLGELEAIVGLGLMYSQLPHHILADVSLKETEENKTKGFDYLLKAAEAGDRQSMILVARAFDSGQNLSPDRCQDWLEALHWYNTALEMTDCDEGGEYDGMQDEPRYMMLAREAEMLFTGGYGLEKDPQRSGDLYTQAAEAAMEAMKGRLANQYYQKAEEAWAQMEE
Note the log scale: values are log10 of IC50 expressed in nM.

Illustrative cases are given below, each with its answer.
{"molecule": "Cc1c2c(nc3sc(C(N)=O)c(N)c13)CCCCCC2", "measurement": 3.04}
{"molecule": "NC(=O)c1sc2nc3c(c(-c4ccco4)c2c1N)CCCCC3", "measurement": 3.04}
{"molecule": "Nc1ncnc2c1sc1nc3c(c(-c4ccco4)c12)CCCCC3", "measurement": 3.67}
{"molecule": "Cc1cccc(-c2c3c(nc4sc(C(N)=O)c(N)c24)CCCCCC3)c1", "measurement": 3.08}
{"molecule": "CC(C)=CCCC(C)c1c2c(nc3sc(C(N)=O)c(N)c13)CCCCCC2 (racemic)", "measurement": 4.00}
{"molecule": "NC(=O)c1sc2nc3c(cc2c1N)CCCCCC3", "measurement": 3.40}
{"molecule": "NC(=O)c1sc2nc3c(c(-c4ccc(Cl)cc4)c2c1N)CCCCCC3", "measurement": 3.04}
{"molecule": "NC(=O)c1sc2nc3c(c(-c4ccc(Cl)c(Cl)c4)c2c1N)CCCCCC3", "measurement": 3.00}

### Prompt Using the record for "CC(C)Cc1c2c(nc3sc(C(N)=O)c(N)c13)CCCCCC2" , report its log10 of IC50.
### Response 2.93

* * *

target: Eukaryotic elongation factor 2 kinase (Homo sapiens); assay: Inhibition of GST tagged eEf2K expressed in Escherichia coli by fluorometric method
measured_attribute: pIC50
Scale for pIC50: -log10 of concentration given in mol/L; no unit attached.

Illustrative cases are given below, each with its answer.
{"chemical_structure": "Cc1cc(-c2c3c(nc4sc(C(N)=O)c(N)c24)CCCCCC3)oc1C", "pIC50": 5.96}
{"chemical_structure": "NC(=O)c1sc2nc3c(c(-c4ccc(C(F)(F)F)o4)c2c1N)CCCCCC3", "pIC50": 6.52}
{"chemical_structure": "NC(=O)c1sc2nc3c(c(/C=C/c4ccco4)c2c1N)CCCCCC3", "pIC50": 6.49}
{"chemical_structure": "CCc1ccc(-c2c3c(nc4sc(C(N)=O)c(N)c24)CCCCCC3)o1", "pIC50": 6.18}

Alright, here's another compound for you.
### Prompt Identify the measured pIC50 of "NC(=O)c1sc2nc3c(c(-c4ccc(CO)o4)c2c1N)CCCCCC3" for Eukaryotic elongation factor 2 kinase (Homo sapiens).
### Response 6.10
